Assay: NCI Yeast Anticancer Drug Screen. Data for the cln2 rad14 strain (AID 165);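 also: 0% = growth equal to vehicle treated cultures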
Details: S. cerevisiae cln2 rad14 strain, at 50.0 µM, active compounds read high
Method: Growth inhibition of yeast strains with defined genetic alterations is measured as a screen for potential anti-cancer activity. Selected strains with alterations in DNA damage repair or cell cycle control were exposed to compounds and growth inhibition was measured relative to vehicle treated controls. The strain used in this assay is cln2 rad14
Compounds without any hit were thinned out: in the full panel of roughly 79,000, 15% have a hit.
assay.readout: growth inhibition (%)
Output spec: scalar in %, unitless text.

These recorded examples may help you get a feel for the data.
O=C(c1ccccc1)C1CCC(C(=O)c2ccccc2)C1=O (stereo not drawn) : 17.9
Cc1ccc(N=N/C(=N/NC(=O)c2ccccc2)c2ccc(N(CCC#N)CCC#N)cc2C)cc1 : -16.3
C=C1c2ccccc2C=NN1c1ccccc1 : 4.25
COC(=O)CC(NC(=O)C(Cc1cncn1C(=O)OCc1ccccc1)NC(=O)OCc1ccccc1)C(=O)O (stereo not drawn) : 6.8
O=C(ON(Cc1ccccc1)Cc1ccccc1)c1ccccc1 : -14.8
O=C(OCC1CCCO1)c1ccc(Cl)cc1 (stereo not drawn) : 34.1

Given the entry CC1(Cn2ccc(=O)[nH]c2=O)CC(C2(C)OCCO2)C(=O)O1 (stereo not drawn) , report its measured growth inhibition.
-30.7

# repeat for OCCCNCc1ccccc1
-32.4

# repeat for COc1cc2c(cc1OC)C1=Cc3cc(OC)c(OC)cc3C(C)N1C=C2 (stereo not drawn)
-18.6

# repeat for CCN(CC)c1ccc2cc(-c3nc4ccccc4s3)c(=O)oc2c1
-3.05

# repeat for CC(=O)N1CCN(C=S)CC1
15.8

# repeat for O=C1NC2OC(CO)C(O)C(O1)C2O (stereo not drawn)
-5

# repeat for C=CC1CC(NC(=O)OC)C(=O)O1 (stereo not drawn)
-38.1

# repeat for CC(C)(C)c1ccn[nH]1.CC(C)(C)c1ccn[nH]1.[Cl-].[Cl-].[O]=[V][O-]
-29.2

# repeat for CCCCNC(=O)c1ccc([N+](=O)[O-])cc1
17.6

# repeat for CCC(=O)Oc1c(C(C)C)cccc1C(C)(C)C
-8

# repeat for COc1ccc(CN2CCCN(Cc3ccc(OC)cc3)C2c2ccc([N+](=O)[O-])cc2)cc1
-18.7

# repeat for Cc1cccc(/C=C(\C#N)C(=O)c2ccccc2)c1
5.75

# repeat for O=C(O)C1C2C=CC(O2)C1C(=O)Nn1cccc1 (stereo not drawn)
-12.8

# repeat for CC[N+]1(C)CCOCC1
-21.9

# repeat for CCOC(=O)c1[nH]c(COC(C)=O)c2c1CCCCCCCCCC2
41.2

# repeat for O=C(O)c1ccc(O)cc1
2.45

# repeat for CCOC(=O)/C(C#N)=C/c1ccnc2ccccc12
-45.4

# repeat for CN1CCC(O)(c2ncc(Br)c3ccccc23)CC1
10.8

# repeat for CCN(CC)C(N)=Nc1cc2ccccc2c2ccccc12
-45.5
